test system: UO-31 renal; experiment: NCI-60 one-dose screen, 48 h (100 = growth as untreated, 0 = no growth, -100 = all killed); details: 10 µM unless noted
Compounds without any hit were thinned out: in the full panel of roughly 83,000, 20% have a hit. Activity calls are given as the source filed them. The calls were made as follows: active = growth percent below 10; inactive = the rest.
Let's look at some compounds and their measured growth.
REPORTED PROPERTY: growth

COMPOUND	VALUE OBSERVED
CC[C@@]1(O)C(=O)OCc2c1cc1n(c2=O)Cc2cc3ccccc3nc2-1	-59.6% (active)
CCCCCCCCCCCC1CCCC(C)N1 (configuration not stated)	29% (inactive)
CCOC(=O)C(NC(=O)C(Cc1ccc(N(CCCl)CCCl)cc1)NC(C)=O)C(C)C (configuration not stated)	82.5% (inactive)
COc1ccc(OC)c(/C=C/[N+](=O)[O-])c1	-81.9% (active)
CC[C@@]1(O)C[C@H](OC2CC(N(C)C)C(O)C(C)O2)c2c(O)c3c(c(O)c2[C@H]1OC1CC(N(C)C)C(O)C(C)O1)C(=O)c1cccc(O)c1C3=O (some centres not stated)	-33.9% (active)
C[C@]12CC[C@H](O)CC1=CC[C@@H]1[C@@H]2CC[C@]2(C)C(=O)CC[C@@H]12	80.6% (inactive)
COC1CC(CC2CCC(C)C(C(C)C(=O)O)O2)OC2(OC(C)(C3CCC(C)(C4OC(C5OC(O)(CO)C(C)CC5C)CC4C)O3)CC2C)C1C (configuration not stated)	13.3% (inactive)

###

system: HCT-116 colon; assay: NCI-60 one-dose screen, 48 h (100 = growth as untreated, 0 = no growth, -100 = all killed); conditions: 10 µM unless noted
About 83,000 compounds went through this panel and 20% of them were active in at least one assay; those are over-represented in the sample as a whole.
# reported growth; entries follow

COMPOUND	growth (%)
CN1CCN(c2ccc([N+](=O)[O-])c3no[n+]([O-])c23)CC1	-66.5
C[C@]12CC[C@H](O)CC1=CC[C@@H]1[C@@H]2CC[C@]2(C)C(=O)CC[C@@H]12	91.6
CC[C@@]1(O)C[C@H](OC2CC(N(C)C)C(OC3CC(O)C(OC4CCC(=O)C(C)O4)C(C)O3)C(C)O2)c2c(cc3c(c2O)C(=O)c2c(O)ccc(O)c2C3=O)[C@H]1C(=O)OC (stereo partly specified)	-58.7
CC[n+]1c(-c2ccccc2)c2cc(N)ccc2c2ccc(N)cc21	13.8
CC1=C2C(=O)[C@H]3[C@@H](CC=C4C[C@@H](O)CC[C@@]43C)[C@@H]2CC[C@]12O[C@@H]1C[C@H](C)CN[C@H]1[C@H]2C	45.5
CC[C@@]1(O)C(=O)OCc2c1cc1n(c2=O)Cc2cc3ccccc3nc2-1	-12.5
NCCc1ccc(OCc2ccccc2)c(OCc2ccccc2)c1	61.8
CCCCCCCCCCCC1CCCC(C)N1 (stereo unspecified)	65
CCC1(O)CC(OC2CC(N(C)C)C(OC3CC4OC5CC(=O)C(C)OC5OC4C(C)O3)C(C)O2)c2c(cc3c(c2O)C(=O)c2c(O)ccc(O)c2C3=O)C1C(=O)OC (stereo unspecified)	-2.93
C[C@H]1CCC/C=C/[C@@H]2C[C@H](O)C[C@H]2[C@H](O)/C=C/C(=O)O1	-70.8
COC1=C(C)C(=O)C2=C(C1=O)C(CO)N1C(C#N)C3CC4C(C1C2N1CCOC41)N3C (stereo unspecified)	-33.7
Oc1cc[c]([Hg][Cl])cc1	91
O=C1c2ccccc2C(=O)C(Cl)C1Cl (stereo unspecified)	-95.7
COc1ccc(OC)c(/C=C/[N+](=O)[O-])c1	-81.5
CCOC(=O)C(NC(=O)C(Cc1ccc(N(CCCl)CCCl)cc1)NC(C)=O)C(C)C (stereo unspecified)	77.2
CC[C@@]1(O)C[C@H](OC2CC(N(C)C)C(O)C(C)O2)c2c(O)c3c(c(O)c2[C@H]1OC1CC(N(C)C)C(O)C(C)O1)C(=O)c1cccc(O)c1C3=O (stereo partly specified)	-3.79
